The reported measurements were obtained from patent US20200216495A1.

target: Tau40 P301L protein (human); experiment: cell-based or functional assay
Square brackets hold non-standard residues; d marks the D form. Ends that are not written are not given here. dNle = CCCC[C@@H](N)C(=O)O
Please assign 0 whenever IC50, Tau40 assay (ThT) is at or above 1000 nM, and 1 whenever it is below.

Example entries and their recorded answers appear below.
{"columns": ["binder", "qualitative-label"],
 "data": [
  ["[dW][dK][dL][dK][dL][dW][dW][dW] [wklklwww (PEPTIDE ID NO: 14)]", 1],
  ["[dF][dW][dR][dL][dK][dV][dR][dW] [fwrlkvrw (PEPTIDE ID NO: 261)]", 0],
  ["[dW][dR][dR][dK][dV][dR][dW][dW] [wrrkvrww (PEPTIDE ID NO: 220)]", 1],
  ["[dR][dI][dR][dW][dY][dW][dK] [rirwywk (PEPTIDE ID NO: 311)]", 0],
  ["[dE][dW][dR][dL][dK][dV][dR][dW] [ewrlkvrw (PEPTIDE ID NO: 229)]", 1]
]}

Please find the next binder below.
Consider [dL][dK][dI][dR][dI][dNle][dY] [lkiriuy (PEPTIDE ID NO: 251)] . Does its IC50, Tau40 assay (ThT) lie strictly below 1000 nM?
0
